The reported measurements were obtained from ChEMBL document CHEMBL2028040.

Each entry below carries its reported pIC50.
# Test system: Leishmania infantum
# Procedure summary: MMV: Inhibition of Leishmania infantum (MHOM/MA/BE/67) in vitro.
# Type: functional, organism-based
pIC50: −log10 of the molar value.

# Compound, Sign, pIC50
measured = [
    ("COc1cc(-c2nc(-c3ccc(Sc4ccccc4)cc3)c(-c3ccccc3)[nH]2)cc(OC)c1O", "=", 4.79),
    ("CCCCCCc1cc2cc(-c3csc(C=Cc4ccccc4)n3)c(=O)oc2cc1O", "<", 4.49),
    ("Clc1ccc2[nH]c3c(NCCCN4CCOCC4)ncnc3c2c1", "<", 4.49),
    ("CCOc1ccccc1CNC(=O)C1c2ccccc2C(=O)N(CC(C)C)C1c1cccs1 (stereo unspecified)", "<", 4.49),
    ("COc1ccc(-c2cn3c(C(=O)Nc4ccccc4Cl)c(-c4ccccc4)c4c3n2CCCC4)cc1", "=", 4.80),
    ("CCOc1ccc(-n2cc(-c3ccccc3)c3c(SCc4cc(C)ccc4C)ncnc32)cc1", "<", 4.49),
    ("COc1ccc(C(C)=O)cc1N1C(=O)C2C(C1=O)C1(c3ccccc3)C(=O)C2(c2ccccc2)C(c2ccc(C)cc2)=C1c1ccc(C)cc1 (stereo unspecified)", "<", 4.49),
    ("COc1cccc(-c2nn(C)c3sc(C(=O)NCCN4CCN(c5ccccc5F)CC4)cc23)c1", "<", 4.49),
    ("COc1ccc2nc(C)cc(Nc3cccc(O)c3)c2c1", "=", 4.80),
    ("OC(Cn1nnc2ccccc21)Cn1c2ccc(Br)cc2c2cc(Br)ccc21 (stereo unspecified)", "<", 4.49),
    ("Cc1ccc(C)c(Cn2c(N3CCC(C(=O)NCc4cccs4)CC3)nc3ccccc32)c1", "=", 4.76),
    ("Cc1ccnc(NC(c2cccc(OCc3ccccc3)c2)c2ccc3cccnc3c2O)c1 (stereo unspecified)", "=", 5.39),
    ("COc1ccccc1CNC(=O)CCn1c(=O)[nH]c2ccccc2c1=O", "<", 4.49),
    ("CCCCCCc1cc(O)c2c3c(c(=O)oc2c1)CCC(C)C3 (stereo unspecified)", "<", 4.49),
    ("COc1cccc(Nc2nc(NCCO)c3ccccc3n2)c1", "=", 5.36),
    ("COc1cccc(C2(C)Nc3ccccc3-c3nc4ccccc4n32)c1 (stereo unspecified)", "<", 4.49),
    ("COc1ccc(-c2nonc2NC(=O)c2cccc(C)c2)cc1OC", "<", 4.49),
    ("c1ccc(CNc2nc(Nc3ccccc3)nc3ccccc23)cc1", "=", 6.15),
    ("CCN1CCN(c2c(C(=O)c3ccccc3)cnc3cc(OC)c(OC)cc23)CC1", "<", 4.49),
    ("COc1ccc2c(=O)cc(C(Cl)(Cl)Cl)oc2c1", "=", 4.79),
    ("Cc1cc(Nc2ccc(OCc3ccccc3)cc2)nc2cc(O)ccc12", "=", 4.79),
]

---

Each entry below carries its reported pIC50.
# Procedure summary: MMV: Cytotoxicity against human fibroblasts (MRC-5) cells.
# Condition description: MRC-5 cells (human fibroblasts)
pIC50: −log10 of the molar value.
Recorded endpoint: pIC50

# Molecule, Readout value
data = [
    ("COc1nc(Nc2ccc(C(C)C)cc2)nc(OC)n1", "< 4.49"),
    ("Cc1ccc(Cn2c(N3CCC(C(=O)NCc4cccs4)CC3)nc3ccccc32)cc1", "< 4.49"),
    ("CCC(O)c1ccc(Br)cc1NC(=O)c1cccc(Cl)c1 (stereo unspecified)", "< 4.49"),
    ("COc1cc(C(=O)ON=C(N)Cc2cccc3ccccc23)cc(OC)c1OC", 5.25),
    ("CCCCc1c(CCC)c(=N)c2ccccc2n1C", 4.71),
    ("CCOc1ccccc1CNC(=O)C1c2ccccc2C(=O)N(CC(C)C)C1c1cccs1 (stereo unspecified)", "< 4.49"),
]

---

# Tested on: Leishmania infantum
# Procedure summary: MMV: Inhibition of Leishmania infantum (MHOM/MA/BE/67) in vitro.
# Assay type: functional, organism-based

# Compound, Experimental system, Unit symbol, Sign, IC50
data = [
    ("c1ccc2c(NCCCCCCNc3c4c(nc5ccccc35)CCCC4)c3c(nc2c1)CCCC3", "Leishmania infantum", "µM", "=", 1.01),
    ("CN(C)CCCNc1c2ccccc2nc2ccccc12", "Leishmania infantum", "µM", "=", 1.01),
    ("CCc1ccc(Nc2cc(C)nc3nc(C)nn23)cc1", "Leishmania infantum", "µM", ">", 32),
    ("O=C(Nc1cccc(C(F)(F)F)c1)c1cc(Cl)ccc1O", "Leishmania infantum", "µM", "=", 16.2),
    ("CCn1c2c(c(=N)c3c1CCC3)CCCC2", "Leishmania infantum", "µM", ">", 32),
    ("c1ccc(Cn2c(N=Nc3c(Nc4ccccc4)ccc4ccccc34)nc3ccccc32)cc1", "Leishmania infantum", "µM", "=", 3.01),
    ("CCCCN(CCCC)S(=O)(=O)c1ccc(NC(=O)c2ccco2)cc1", "Leishmania infantum", "µM", ">", 32),
    ("CCOC(=O)C1=C(c2ccccc2)N=c2sc(=Cc3cc(C)n(-c4ccc(F)cc4)c3C)c(=O)n2C1c1cccc(OC)c1OC (stereo not drawn)", "Leishmania infantum", "µM", ">", 32),
    ("O=c1nc(C=Cc2ccc(Br)cc2)oc2ccccc12", "Leishmania infantum", "µM", "=", 4.06),
    ("CCOc1cc2c(cc1OCC)C(c1cc(C)c(O)c(C)c1)NCC2 (stereo not drawn)", "Leishmania infantum", "µM", "=", 17.3),
    ("CCN(Cc1ccccc1)C1CCN(Cc2cc(Br)ccc2O)CC1", "Leishmania infantum", "µM", "=", 16),
    ("COc1ccc(-c2nc3cc(Cc4ccc5[nH]c(-c6ccc(OC)cc6)nc5c4)ccc3[nH]2)cc1", "Leishmania infantum", "µM", "=", 4.06),
    ("O=C(NCc1ccco1)C1CCN(S(=O)(=O)c2ccc(Cl)cc2)CC1", "Leishmania infantum", "µM", ">", 32),
    ("COc1ccc(CCn2c(=N)c(C(=O)NCc3cccnc3)cc3c(=O)n4cccc(C)c4nc32)cc1", "Leishmania infantum", "µM", "=", 12.7),
    ("Nc1ccn([C@@H]2O[C@H](CO)[C@@H](O)[C@H]2O)c(=O)n1 [CYTIDINE]", "Leishmania infantum", "µM", ">", 32),
    ("COc1ccc(-c2cc3c(SCC(=O)Nc4cc(C(F)(F)F)ccc4Cl)nccn3n2)cc1", "Leishmania infantum", "µM", "=", 16.2),
    ("Cc1cc(NC(=O)C2c3ccccc3C(=O)N(CC(C)C)C2c2cccs2)no1 (stereo not drawn)", "Leishmania infantum", "µM", ">", 32),
    ("CCCN(CCC)CC(O)COc1ccccc1C(=O)Nc1ccccc1 (stereo not drawn)", "Leishmania infantum", "µM", ">", 32),
    ("CC(=O)Nc1nnc(SCc2c(C)cc(C(C)(C)C)cc2C)s1", "Leishmania infantum", "µM", ">", 32),
    ("O=C(Nc1cccc(C2=NCCN2)c1)Nc1cccc(C2=NCCN2)c1 [IMIDOCARB]", "Leishmania infantum", "µM", ">", 32),
    ("COc1ccc(C(=O)NC(c2ccc(Cl)cc2Cl)c2cc(Cl)c3cccnc3c2O)cc1 (stereo not drawn)", "Leishmania infantum", "µM", "=", 4.76),
    ("O=C(Nc1ccsc1C(=O)NC1CCCCC1)c1ccc(F)cc1", "Leishmania infantum", "µM", ">", 32),
    ("FC(F)(F)c1ccc(Nc2nnnc3ccccc23)cc1", "Leishmania infantum", "µM", ">", 32),
    ("CN1CCN(c2ncnc3c2[nH]c2ccc(Cl)cc23)CC1", "Leishmania infantum", "µM", "=", 21.5),
    ("CCOc1ccccc1NC(=O)CN1CCN(C(=O)c2ccco2)CC1", "Leishmania infantum", "µM", ">", 32),
    ("COc1ccccc1CNC(=O)CCn1c(=O)[nH]c2ccsc2c1=O", "Leishmania infantum", "µM", ">", 32),
    ("Cc1cc(N(C)C)nc(Nc2ccc(NC(=O)Nc3ccccc3)cc2)n1", "Leishmania infantum", "µM", "=", 4.32),
    ("Cc1ccc(C2CC(C(F)(F)F)n3nc(C(=O)N4CCN(C(c5ccccc5)c5ccccc5)CC4)cc3N2)cc1 (stereo not drawn)", "Leishmania infantum", "µM", "=", 16.2),
    ("CC1CC2=C(CC1CNCCCN(C)C)C(C)(C)CCC2 (stereo not drawn)", "Leishmania infantum", "µM", "=", 3.01),
    ("CCOC(=O)C1(Cc2ccccc2)CCN(Cc2cccc(OC)c2O)CC1", "Leishmania infantum", "µM", ">", 32),
    ("CN1C=C(c2ccc3ccccc3n2)C(c2c[nH]c3ccccc23)c2ccccc21 (stereo not drawn)", "Leishmania infantum", "µM", "=", 16.2),
    ("COc1ccc(C2NCCc3c2[nH]c2ccccc32)cc1CN1CCN(c2ccc(F)cc2)CC1 (stereo not drawn)", "Leishmania infantum", "µM", "=", 1.19),
    ("Cc1cc(Nc2ccc(C)c(Cl)c2)n2nc(C(F)(F)F)nc2n1", "Leishmania infantum", "µM", ">", 32),
    ("O=C(Nc1ccc(Cl)cc1)N1CCN(c2ccc3nncn3n2)CC1", "Leishmania infantum", "µM", ">", 32),
    ("COc1ccc(C)c2sc(N(Cc3cccnc3)C(=O)c3ccc(C#N)cc3)nc12", "Leishmania infantum", "µM", ">", 32),
    ("OC(CNCc1ccccc1)Cn1c2ccccc2c2ccccc21 (stereo not drawn)", "Leishmania infantum", "µM", "=", 4),
    ("COc1cc2c(cc1OC)C1=NNC(=O)C1=NC(C)(C)C2", "Leishmania infantum", "µM", "=", 4.03),
    ("COc1ccc2c(c1)OC(O)(C(F)(F)C(F)(F)F)CC2=O (stereo not drawn)", "Leishmania infantum", "µM", "=", 25.4),
    ("CCN(CC)CCn1c(=N)n(CC(O)c2ccc(Cl)c(Cl)c2)c2ccccc21 (stereo not drawn)", "Leishmania infantum", "µM", "=", 1),
    ("CSc1ccccc1C(=O)Nc1nc(-c2ccccn2)cs1", "Leishmania infantum", "µM", "=", 0.336),
    ("CCOC(=O)C1=CN(C)C=C(C(=O)OCC)C1c1cc(Br)c(OCC)c(OC)c1", "Leishmania infantum", "µM", ">", 32),
    ("O=C(Nc1ccc(-c2nc3ccccc3[nH]2)cc1)c1ccc(Cl)c(Cl)c1", "Leishmania infantum", "µM", ">", 32),
    ("CCOc1cc(Cl)c(C(C)NC(=O)c2cccc(OC)c2)cc1OCC (stereo not drawn)", "Leishmania infantum", "µM", ">", 32),
]
